Source: the supplement of paper PMC8960247

Test system: 621-102 (TSC2-deficient)
assay.text: relative viability vs DMSO; higher = less cytotoxic
condition.parameters: 10 µM; serum: 10% FBS; 72 h
Where a name gives a salt, the structure may show the parent alone.
For each entry below, report its relative viability value.
Please state the figure in %; there is no need to write the unit.

q: In one line, give reported relative viability of the entry Nc1nc(Cl)nc2c1ncn2[C@H]1C[C@H](O)[C@@H](CO)O1 [Cladribine] .
a: 52.7

q: Provide only the value of recorded relative viability for COC1=C2C[C@@H](C)C[C@H](OC)[C@H](O)[C@@H](C)/C=C(\C)[C@H](OC(N)=O)[C@@H](OC)/C=C\C=C(/C)C(=O)NC(=CC1=O)C2=O [Geldanamycin]
a: 8.32

q: Using known records, supply relative viability for CC(C)(C)C#Cc1cc(N(C(=O)[C@H]2CC[C@H](C)CC2)[C@H]2CC[C@H](O)CC2)c(C(=O)O)s1 [VX-222]
a: 106

q: Give reported relative viability value for CC(C)c1cnn2c(NCc3ccccc3)cc(NCCCCCCN)nc12 [BS-181]
a: 81.2

q: Return relative viability (reported value) for this compound: CCc1c2c(nc3ccc(OC(=O)N4CCC(N5CCCCC5)CC4)cc13)-c1cc3c(c(=O)n1C2)COC(=O)[C@]3(O)CC [Irinotecan HCl Trihydrate]
a: 63.4

q: Answer with the recorded relative viability of CC(=O)O[C@@]12CO[C@@H]1C[C@H](O)[C@@]1(C)C(=O)[C@H](O)C3=C(C)[C@@H](OC(=O)[C@H](O)[C@@H](NC(=O)OC(C)(C)C)c4ccccc4)C[C@@](O)([C@@H](OC(=O)c4ccccc4)[C@H]21)C3(C)C [Docetaxel] only.
a: 41.7

q: Provide only the value of recorded relative viability for O=C(O)Cc1cccc(OCCCN(Cc2cccc(C(F)(F)F)c2Cl)CC(c2ccccc2)c2ccccc2)c1 [GW3965]
a: 86.9

q: Supply recorded relative viability for O=c1c(O)c(-c2ccc(O)c(O)c2)oc2cc(O)cc(O)c12 [Quercetin (Sophoretin)] here.
a: 73.3

q: For Cn1c(CNc2ccc(C(=N)N)cc2)nc2cc(C(=O)N(CCC(=O)O)c3ccccn3)ccc21 [BIBR 953] , write its relative viability.
a: 81

q: Recall and state the measured relative viability for `Cc1ccc(CN2CCNCC2)cc1NC(=O)CNc1ccc(F)c(F)c1` .
a: 93

q: Provide only the value of recorded relative viability for CCOc1cc2ncc(C#N)c(Nc3ccc(F)c(Cl)c3)c2cc1NC(=O)/C=C/CN(C)C [Pelitinib]
a: 25.2

q: Tell me measured relative viability for COc1ccc(-n2nc(C(N)=O)c3c2C(=O)N(c2ccc(N4CCCCC4=O)cc2)CC3)cc1 [Apixaban] please.
a: 111

q: Consider the compound CO[C@H]1C[C@@H]2CC[C@@H](C)[C@@](O)(O2)C(=O)C(=O)N2CCCC[C@H]2C(=O)O[C@H]([C@H](C)C[C@@H]2CC[C@@H](OP(C)(C)=O)[C@H](OC)C2)CC(=O)[C@H](C)/C=C(\C)[C@@H](O)[C@@H](OC)C(=O)[C@H](C)C[C@H](C)/C=C/C=C/C=C/1C [Deforolimus(MK-8669)] . State its measured relative viability.
a: 48.8

q: Please give the documented relative viability of CCCCC(=O)N(Cc1ccc(-c2ccccc2-c2nnn[nH]2)cc1)[C@H](C(=O)O)C(C)C [Valsartan]
a: 104

q: Provide one value: measured relative viability of `O=c1cc(N2CCOCC2)oc2c(-c3ccccc3)cccc12`
a: 80.2

q: Output relative viability of `O=C(NOC[C@H](O)CO)c1ccc(F)c(F)c1Nc1ccc(I)cc1F`
a: 52.3

q: Give relative viability for the following compound: O=c1[nH]c2ccccc2n1CCCN1CCC(n2c(=O)[nH]c3cc(Cl)ccc32)CC1 [Domperidone (Motilium)]
a: 90.8

q: Identify the reported relative viability for the following entry. `CN(C)Cc1cccc(N=C(c2ccccc2)c2c(O)[nH]c3cc(C(=O)N(C)C)ccc23)c1`
a: 93.3

q: Supply recorded relative viability for COC(=O)Nc1ccc(-c2nc(N3CCOCC3)c3cnn(C4CCN(C(=O)OC)CC4)c3n2)cc1 [WYE-354] here.
a: 61.2

q: Please list relative viability recorded for the compound O=C(O)[C@H]1O[C@@H](Oc2cc3oc(-c4ccccc4)cc(=O)c3c(O)c2O)[C@H](O)[C@@H](O)[C@@H]1O [Baicalin]
a: 98.5

q: Return value of relative viability for input `COC(=O)N[C@H](C(=O)N1CCC[C@H]1c1ncc(-c2ccc(-c3ccc(-c4cnc([C@@H]5CCCN5C(=O)[C@@H](NC(=O)OC)C(C)C)[nH]4)cc3)cc2)[nH]1)C(C)C` , no commentary.
a: 81.1

q: Give the value of relative viability reported for the following: `Cn1cc(-c2ccc3nnc(C(F)(F)c4ccc5ncccc5c4)n3n2)cn1`
a: 98.2

q: Retrieve relative viability measured for C/C(=C\c1csc(C)n1)[C@@H]1C[C@@H]2O[C@@H]2CCC[C@H](C)[C@H](O)[C@@H](C)C(=O)C(C)(C)[C@@H](O)CC(=O)O1 [Epothilone A] and print it.
a: 34.2

q: Identify the reported relative viability for the following entry. `CC1=NN(c2ccc(C)c(C)c2)C(=O)/C1=N\Nc1cccc(-c2cccc(C(=O)O)c2)c1O`
a: 83.7

q: Supply reported relative viability belonging to this compound: Cc1nc(N)sc1-c1ccnc(Nc2ccc(N3CCOCC3)cc2)n1 [CYC116]
a: 50.6

q: Let me know recorded relative viability for OC(CNCC(O)C1CCc2cc(F)ccc2O1)C1CCc2cc(F)ccc2O1 (centres undefined) [Nebivolol HCl] , thanks.
a: 77.1

q: Read the entry COc1cc2nccc(Oc3ccc(NC(=O)C4(C(=O)Nc5ccc(F)cc5)CC4)cc3)c2cc1OC [XL184] and write its reported relative viability.
a: 99.4

q: Look up relative viability of Cc1ccccc1-n1c(Cn2ncc3c(N)ncnc32)nc2cccc(C)c2c1=O [PIK-293] and report it.
a: 108

q: Answer with reported relative viability of CNC(C)C1CCC(N)C(OC2C(N)CC(N)C(OC3OCC(C)(O)C(NC)C3O)C2O)O1 (centres undefined) [Gentamycin sulfate (Gentacycol)]
a: 91.9

----------
Test system: 621-102 (TSC2-deficient);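 note: immortalized renal angiomyolipoma cells stably carrying empty vector or TSC2, dosed in 384-well plates in DMEM, viability normalized to vehicle-treated wells within each plate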
assay.text: relative viability vs DMSO; higher = less cytotoxic
condition.parameters: 1 µM; serum: 10% FBS; 72 h
Structures can show the parent of a compound that is named as a salt.
readout.type: relative viability (%)
State just the number; it will be interpreted in %.

q: Return value of relative viability for input `Cc1cnc(NC(=O)Nc2cc(Br)c(C)cc2OC[C@@H]2CNCCO2)cn1` , no commentary.
a: 29.1

q: For the molecule Cc1nnc(C(C)C)n1[C@H]1C[C@H]2CC[C@@H](C1)N2CC[C@H](NC(=O)C1CCC(F)(F)CC1)c1ccccc1 [Maraviroc (Selzentry)] , give its measured relative viability value.
a: 108

q: Read the entry CC(C)[C@H](O)C(=O)N[C@@H](C)C(=O)N[C@@H]1C(=O)N(C)CCc2ccccc21 [Semagacestat] and write its reported relative viability.
a: 118

q: Give a short answer stating reported relative viability for `CC(C)(C)Cn1c(N)nc2ccc(-c3[nH]c(C(C)(C)C)nc3-c3ccc(F)cc3)nc21` .
a: 99.1

q: Consider the molecule `NC1(Cc2ccc(Cl)cc2)CCN(c2ncnc3[nH]ccc23)CC1` and give its recorded relative viability.
a: 77.3

q: Name the recorded relative viability of the molecule listed here: `Cc1[nH]c(/C=C2\C(=O)Nc3ccc(S(=O)(=O)N(C)c4cccc(Cl)c4)cc32)c(C)c1C(=O)N1CCN(C)CC1`
a: 100

q: For the molecule O=C1c2c(O)ccc(O)c2C(=O)c2c(NCCNCCO)ccc(NCCNCCO)c21 [Mitoxantrone] , give its measured relative viability value.
a: 5.07

q: State, in one line, measured relative viability of CCN1CCN(C(=O)Cc2ccc(Nc3ncc(F)c(Nc4ccc(C(=O)Nc5ccccc5Cl)cc4)n3)cc2)CC1 [Aurora A Inhibitor I]
a: 104

q: Assign relative viability to the following record: CCOC(=O)[C@H](CCc1ccccc1)N[C@H]1CCc2ccccc2N(CC(=O)O)C1=O [Benazepril HCl]
a: 74.6

q: Indicate its recorded relative viability; the molecule in question is CC(=O)O[C@H]1C[C@@H]2CC[C@@H]3[C@H](CC[C@@]4(C)[C@H]3C[C@H]([N+]3(C)CCCCC3)[C@@H]4OC(C)=O)[C@@]2(C)C[C@@H]1[N+]1(C)CCCCC1 [Pancuronium bromide]
a: 84.1

q: Give the reported relative viability for this molecule. O=C1N=C(O)NC1(c1ccccc1)c1ccccc1 [Phenytoin sodium]
a: 92

q: For the molecule CN1CCC(CNc2ccc3ncc(-c4cccc(OC(F)(F)F)c4)n3n2)CC1 [SGI-1776] , give its reported relative viability.
a: 86.6

q: Provide one value: measured relative viability of CC/C(=C(\c1ccccc1)c1ccc(OCCN(C)C)cc1)c1ccccc1 [Tamoxifen Citrate]
a: 101

q: Provide measured relative viability value, entry: CC(=O)NC[C@H]1CN(c2ccc(N3CCOCC3)c(F)c2)C(=O)O1 [Linezolid]
a: 102

q: For C[C@H](N[C@@H](CCc1ccccc1)C(=O)O)C(=O)N1CCC[C@H]1C(=O)O [Enalaprilat] , write its relative viability.
a: 95.9

q: Read off the recorded relative viability for N#C/C(=C\c1ccc(O)c(O)c1)C(=O)NCc1ccccc1 [AG-490]
a: 99.2
